- Test system: NCI-H596
- ASSAY_INFO: relative viability (nuclei count vs DMSO), 5 days (fraction); higher = more cells survive
- EXPERIMENTAL_PARAMETERS: first compound 1.265 µM
Items are presented alongside their recorded relative viability.
Form rule: numeric answer, no unit written next to it.

COMPOUND	MEASURE_NAME	OBSERVED_VALUE
O=C(O)c1ccc(-c2c[nH]c3ncc(-c4ccccc4)cc23)cc1C1CCCC1 + CS(=O)(=O)N1CCN(Cc2cc3nc(-c4cccc5[nH]ncc45)nc(N4CCOCC4)c3s2)CC1 [Pictilisib] (partner 1 µM)	relative viability	0.41
O=C(O)c1ccc(-c2c[nH]c3ncc(-c4ccccc4)cc23)cc1C1CCCC1 + Nc1ncn([C@H]2C[C@H](O)[C@@H](CO)O2)c(=O)n1 [Decitabine] (partner 2 µM)	relative viability	1.74
O=C(O)c1ccc(-c2c[nH]c3ncc(-c4ccccc4)cc23)cc1C1CCCC1 + CC(=O)Nc1cccc(-n2c(=O)n(C3CC3)c(=O)c3c(Nc4ccc(I)cc4F)n(C)c(=O)c(C)c32)c1 [Trametinib] (partner 0.02 µM)	relative viability	0.802
O=C(O)c1ccc(-c2c[nH]c3ncc(-c4ccccc4)cc23)cc1C1CCCC1 + Cc1nc(Nc2ncc(C(=O)Nc3c(C)cccc3Cl)s2)cc(N2CCN(CCO)CC2)n1 [Dasatinib] (partner 0.075 µM)	relative viability	0.639
O=C(O)c1ccc(-c2c[nH]c3ncc(-c4ccccc4)cc23)cc1C1CCCC1 + COc1cc2c(Oc3ccc(NC(=O)C4(C(=O)Nc5ccc(F)cc5)CC4)cc3F)ccnc2cc1OCCCN1CCOCC1 [Foretinib] (partner 0.25 µM)	relative viability	0.999

Let's switch to this compound now.
// fetch relative viability given entry O=C(O)c1ccc(-c2c[nH]c3ncc(-c4ccccc4)cc23)cc1C1CCCC1 + Nc1nc2[nH]cc(CCc3ccc(C(=O)N[C@@H](CCC(=O)O)C(=O)O)cc3)c2c(=O)[nH]1 [Pemetrexed] (partner 0.2 µM)
0.479

###

- Test system: SW 900
- ASSAY_INFO: relative viability (nuclei count vs DMSO), 5 days (fraction); higher = more cells survive
- EXPERIMENTAL_PARAMETERS: first compound 0.005 µM
MEASURE_NAME: relative viability
Form rule: numeric answer, no unit written next to it.

Below: 2 compounds and their reported relative viability.
COMPOUND	relative viability
CC1(C)CCC(c2ccc(Cl)cc2)=C(CN2CCN(c3ccc(C(=O)NS(=O)(=O)c4ccc(N[C@H](CCN5CCOCC5)CSc5ccccc5)c(S(=O)(=O)C(F)(F)F)c4)cc3)CC2)C1 [Navitoclax] + COc1cccc2cc(-c3nc([C@H]4CC[C@H](C(=O)O)CC4)n4ncnc(N)c34)[nH]c12 [OSI-027] (partner 0.5 µM)	0.497
CC1(C)CCC(c2ccc(Cl)cc2)=C(CN2CCN(c3ccc(C(=O)NS(=O)(=O)c4ccc(N[C@H](CCN5CCOCC5)CSc5ccccc5)c(S(=O)(=O)C(F)(F)F)c4)cc3)CC2)C1 [Navitoclax] + Nc1nc2[nH]cc(CCc3ccc(C(=O)N[C@@H](CCC(=O)O)C(=O)O)cc3)c2c(=O)[nH]1 [Pemetrexed] (partner 0.2 µM)	0.471

Let's switch to this compound now.
// fetch relative viability given entry CC1(C)CCC(c2ccc(Cl)cc2)=C(CN2CCN(c3ccc(C(=O)NS(=O)(=O)c4ccc(N[C@H](CCN5CCOCC5)CSc5ccccc5)c(S(=O)(=O)C(F)(F)F)c4)cc3)CC2)C1 [Navitoclax] + O=C(c1cc(Cc2n[nH]c(=O)c3ccccc23)ccc1F)N1CCN(C(=O)C2CC2)CC1 [Olaparib] (partner 8 µM)
0.936

###

- Test system: COR-L23
- ASSAY_INFO: relative viability (nuclei count vs DMSO), 5 days (fraction); higher = more cells survive
- EXPERIMENTAL_PARAMETERS: first compound 0.08 µM
Items are presented alongside their recorded relative viability.
Form rule: numeric answer, no unit written next to it.

Below: 4 compounds and their reported relative viability.
COMPOUND	relative viability
C=C1C(=O)O[C@@H](CCCCCCCC)[C@@H]1C(=O)O [C-75] + CC(=O)Nc1cccc(-n2c(=O)n(C3CC3)c(=O)c3c(Nc4ccc(I)cc4F)n(C)c(=O)c(C)c32)c1 [Trametinib] (partner 0.02 µM)	0.636
Oc1nc(-c2ccc(C(F)(F)F)cc2)nc2c1CSCC2 [XAV939] + CC1(C)CCC(c2ccc(Cl)cc2)=C(CN2CCN(c3ccc(C(=O)NS(=O)(=O)c4ccc(N[C@H](CCN5CCOCC5)CSc5ccccc5)c(S(=O)(=O)C(F)(F)F)c4)cc3)CC2)C1 [Navitoclax] (partner 0.5 µM)	1
C=C1C(=O)O[C@@H](CCCCCCCC)[C@@H]1C(=O)O [C-75] + COc1cc2c(Oc3ccc(NC(=O)C4(C(=O)Nc5ccc(F)cc5)CC4)cc3F)ccnc2cc1OCCCN1CCOCC1 [Foretinib] (partner 0.25 µM)	0.903
C=C1C(=O)O[C@@H](CCCCCCCC)[C@@H]1C(=O)O [C-75] + O=C(CCCCCCC(=O)Nc1ccccc1)NO [Vorinostat] (partner 1 µM)	0.507

Let's switch to this compound now.
Lab note: record relative viability of Oc1nc(-c2ccc(C(F)(F)F)cc2)nc2c1CSCC2 [XAV939] + Cc1nc(NC(=O)N2CCC[C@H]2C(N)=O)sc1-c1ccnc(C(C)(C)C(F)(F)F)c1 [Alpelisib] (partner 2 µM) tested on COR-L23.
1

###

- Tested on: EKVX
- ASSAY_INFO: relative viability (nuclei count vs DMSO), 5 days (fraction); higher = more cells survive
- EXPERIMENTAL_PARAMETERS: first compound 0.253 µM
Items are presented alongside their recorded relative viability.

COMPOUND	TARGET_OR_SYSTEM	relative viability
C=C1C(=O)O[C@@H](CCCCCCCC)[C@@H]1C(=O)O [C-75] + N=C(N)NC(=N)NCCc1ccccc1 [Phenformin] (partner 250 µM)	EKVX	0.228
Oc1nc(-c2ccc(C(F)(F)F)cc2)nc2c1CSCC2 [XAV939] + Cc1nc(NC(=O)N2CCC[C@H]2C(N)=O)sc1-c1ccnc(C(C)(C)C(F)(F)F)c1 [Alpelisib] (partner 2 µM)	EKVX	0.67

Lab note: record relative viability of Oc1nc(-c2ccc(C(F)(F)F)cc2)nc2c1CSCC2 [XAV939] + CC(C)C[C@H](NC(=O)[C@H](Cc1ccccc1)NC(=O)c1cnccn1)B(O)O [Bortezomib] (partner 0.002 µM) tested on EKVX.
0.882

Lab note: record relative viability of C=C1C(=O)O[C@@H](CCCCCCCC)[C@@H]1C(=O)O [C-75] + Nc1ncn([C@H]2C[C@H](O)[C@@H](CO)O2)c(=O)n1 [Decitabine] (partner 2 µM) tested on EKVX.
0.397

Lab note: record relative viability of Oc1nc(-c2ccc(C(F)(F)F)cc2)nc2c1CSCC2 [XAV939] + Nc1ncn([C@H]2C[C@H](O)[C@@H](CO)O2)c(=O)n1 [Decitabine] (partner 2 µM) tested on EKVX.
0.336

###

- System: BEN
- ASSAY_INFO: relative viability (nuclei count vs DMSO), 5 days (fraction); higher = more cells survive
- EXPERIMENTAL_PARAMETERS: first compound 0.1265 µM
Please use Satisfied for relative viability under 0.3 and Not satisfied for everything else, ties included.

MOLECULE	ASSIGNED_LABEL
O=C(O)c1ccc(-c2c[nH]c3ncc(-c4ccccc4)cc23)cc1C1CCCC1 + N=C(N)NC(=N)NCCc1ccccc1 [Phenformin] (partner 250 µM)	Satisfied
O=C(O)c1ccc(-c2c[nH]c3ncc(-c4ccccc4)cc23)cc1C1CCCC1 + Nc1nc2[nH]cc(CCc3ccc(C(=O)N[C@@H](CCC(=O)O)C(=O)O)cc3)c2c(=O)[nH]1 [Pemetrexed] (partner 0.2 µM)	Not satisfied
O=C(O)c1ccc(-c2c[nH]c3ncc(-c4ccccc4)cc23)cc1C1CCCC1 + CCNC(=O)c1noc(-c2cc(C(C)C)c(O)cc2O)c1-c1ccc(CN2CCOCC2)cc1 [Luminespib] (partner 0.01 µM)	Not satisfied
O=C(O)c1ccc(-c2c[nH]c3ncc(-c4ccccc4)cc23)cc1C1CCCC1 + O=C(CCCCCCC(=O)Nc1ccccc1)NO [Vorinostat] (partner 1 µM)	Not satisfied

Now look at this one.
Please indicate whether the reported relative viability of O=C(O)c1ccc(-c2c[nH]c3ncc(-c4ccccc4)cc23)cc1C1CCCC1 + CC1(C)CCC(c2ccc(Cl)cc2)=C(CN2CCN(c3ccc(C(=O)NS(=O)(=O)c4ccc(N[C@H](CCN5CCOCC5)CSc5ccccc5)c(S(=O)(=O)C(F)(F)F)c4)cc3)CC2)C1 [Navitoclax] (partner 0.5 µM) is strictly below 0.3.
Satisfied

###

- Tested on: 201T
- ASSAY_INFO: relative viability (nuclei count vs DMSO), 5 days (fraction); higher = more cells survive
- EXPERIMENTAL_PARAMETERS: first compound 2.53 µM
Please use Met for relative viability under 0.5 and Not met for everything else, ties included.

COMPOUND	TARGET_OR_SYSTEM	ASSIGNED_LABEL
C=C1C(=O)O[C@@H](CCCCCCCC)[C@@H]1C(=O)O [C-75] + CS(=O)(=O)N1CCN(Cc2cc3nc(-c4cccc5[nH]ncc45)nc(N4CCOCC4)c3s2)CC1 [Pictilisib] (partner 1 µM)	201T	Not met
C=C1C(=O)O[C@@H](CCCCCCCC)[C@@H]1C(=O)O [C-75] + CC(=O)c1c(C)c2cnc(Nc3ccc(N4CCNCC4)cn3)nc2n(C2CCCC2)c1=O [Palbociclib] (partner 0.5 µM)	201T	Met
Oc1nc(-c2ccc(C(F)(F)F)cc2)nc2c1CSCC2 [XAV939] + CC(C)C[C@H](NC(=O)[C@H](Cc1ccccc1)NC(=O)c1cnccn1)B(O)O [Bortezomib] (partner 0.002 µM)	201T	Not met
Oc1nc(-c2ccc(C(F)(F)F)cc2)nc2c1CSCC2 [XAV939] + Cc1nc(Nc2ncc(C(=O)Nc3c(C)cccc3Cl)s2)cc(N2CCN(CCO)CC2)n1 [Dasatinib] (partner 0.075 µM)	201T	Met
Oc1nc(-c2ccc(C(F)(F)F)cc2)nc2c1CSCC2 [XAV939] + Cc1nc(NC(=O)N2CCC[C@H]2C(N)=O)sc1-c1ccnc(C(C)(C)C(F)(F)F)c1 [Alpelisib] (partner 2 µM)	201T	Not met

Please indicate whether the reported relative viability of C=C1C(=O)O[C@@H](CCCCCCCC)[C@@H]1C(=O)O [C-75] + CC(=O)Nc1cccc(-n2c(=O)n(C3CC3)c(=O)c3c(Nc4ccc(I)cc4F)n(C)c(=O)c(C)c32)c1 [Trametinib] (partner 0.02 µM) is strictly below 0.5.
Not met
